Kindly state kinase still bound, per cent of control for each of the entries shown.
- targetOrSystem: LATS1 (human) (UniProt O95835)
- Sequence (O95835 whole entry, looked up): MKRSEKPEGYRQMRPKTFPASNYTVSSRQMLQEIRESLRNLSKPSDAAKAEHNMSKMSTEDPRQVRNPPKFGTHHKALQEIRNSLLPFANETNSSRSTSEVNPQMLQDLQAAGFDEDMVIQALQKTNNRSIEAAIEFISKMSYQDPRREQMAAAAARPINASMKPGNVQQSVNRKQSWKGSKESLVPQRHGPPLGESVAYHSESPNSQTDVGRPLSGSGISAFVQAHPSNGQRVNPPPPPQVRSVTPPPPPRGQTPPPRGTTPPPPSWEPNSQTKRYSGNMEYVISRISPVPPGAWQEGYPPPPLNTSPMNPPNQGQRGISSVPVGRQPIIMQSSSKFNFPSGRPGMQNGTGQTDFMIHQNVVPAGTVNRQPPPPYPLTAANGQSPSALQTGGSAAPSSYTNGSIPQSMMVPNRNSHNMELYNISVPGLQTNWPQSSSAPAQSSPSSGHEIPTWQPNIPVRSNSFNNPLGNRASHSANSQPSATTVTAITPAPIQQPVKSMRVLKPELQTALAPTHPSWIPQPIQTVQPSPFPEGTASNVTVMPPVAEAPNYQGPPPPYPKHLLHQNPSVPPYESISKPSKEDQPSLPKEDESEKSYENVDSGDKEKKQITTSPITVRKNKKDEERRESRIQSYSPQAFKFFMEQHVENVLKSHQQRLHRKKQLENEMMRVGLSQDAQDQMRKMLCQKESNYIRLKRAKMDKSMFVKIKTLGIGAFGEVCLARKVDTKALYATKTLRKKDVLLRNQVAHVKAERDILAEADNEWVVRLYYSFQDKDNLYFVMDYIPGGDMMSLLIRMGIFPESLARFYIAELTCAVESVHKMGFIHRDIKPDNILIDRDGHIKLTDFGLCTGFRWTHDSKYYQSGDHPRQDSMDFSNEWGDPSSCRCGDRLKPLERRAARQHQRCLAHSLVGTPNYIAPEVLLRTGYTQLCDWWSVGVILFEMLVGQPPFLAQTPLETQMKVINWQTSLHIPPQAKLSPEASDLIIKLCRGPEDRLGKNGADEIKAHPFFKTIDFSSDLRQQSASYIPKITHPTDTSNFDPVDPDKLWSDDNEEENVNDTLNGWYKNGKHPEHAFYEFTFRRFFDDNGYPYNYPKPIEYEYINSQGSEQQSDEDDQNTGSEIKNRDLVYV
- experimentDescription: KINOMEscan competition binding
- runConditions: compound 1.0 µM
Answers are plain numbers, in %.

Some compounds with recorded kinase still bound, per cent of control:
- molecularString: "Cc1cc(NC(=O)c2cccc(NC(=O)/C=C/CN(C)C)c2)ccc1Nc1nccc(-c2cccnc2)n1"
  targetOrSystem: "LATS1 (human) (UniProt O95835)"
  measuredMetric: "kinase still bound, per cent of control"
  observedValue: 91
- molecularString: "CN(C)C/C=C/C(=O)Nc1cccc(C(=O)Nc2ccc(Nc3nccc(-c4cccnc4)n3)cc2)c1"
  targetOrSystem: "LATS1 (human) (UniProt O95835)"
  measuredMetric: "kinase still bound, per cent of control"
  observedValue: 100
- molecularString: "CN(C)C/C=C/C(=O)Nc1cccc(C(=O)Nc2ccc(Nc3nccc(-c4c(-c5ccccc5)nn5ccccc45)n3)cc2)c1"
  targetOrSystem: "LATS1 (human) (UniProt O95835)"
  measuredMetric: "kinase still bound, per cent of control"
  observedValue: 95

Now for another entry.
[Q] Report kinase still bound, per cent of control for "CN(C)C/C=C/C(=O)Nc1cccc(C(=O)Nc2ccc(Nc3nccc(/C(C#N)=C4\Nc5ccccc5S4)n3)cc2)c1"
[A] 89
